Values from paper PMC9313321

- testedOn: Aβ42 fibrils (Homo sapiens, UniProt P05067)
- Construct: Beta-amyloid protein, fragment 1-42; purchased Sigma-Aldrich
- Sequence (P05067 672-713 limits assumed): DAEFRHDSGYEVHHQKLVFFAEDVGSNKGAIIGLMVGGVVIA
- experimentDescription: TEM assay of Aβ42 fibrils in the absence of Cu(II)
- Format: biochemical
- measurementConditions: 48 h 37 °C
measurementLabel: Appearance of Aβ42 fibrils in TEM images

Consider the worked cases shown below.
>>> result("CCN(C)C(=O)Oc1cccc(CNC(=O)c2ccc3nc(-c4ccccc4O)[nH]c3c2)c1")
"shortest fibrils"
>>> result("CCN(C)C(=O)Oc1cccc(CCNC(=O)c2ccc3nc(-c4ccccc4O)[nH]c3c2)c1")
"quite elongated fibrils"
>>> result("CCN(C)C(=O)Oc1ccc(CCCNC(=O)c2ccc3nc(-c4ccccc4O)[nH]c3c2)cc1")
"quite elongated fibrils"
>>> result("CCN(C)C(=O)Oc1cccc(NC(=O)c2ccc3nc(-c4ccccc4O)[nH]c3c2)c1")
"shortest fibrils"

// below: Appearance of Aβ42 fibrils in TEM images requested for another molecule
Which measured Appearance of Aβ42 fibrils in TEM images belongs to `CCN(C)C(=O)Oc1cccc(CNC(=O)c2cccc3[nH]c(-c4ccccc4O)nc23)c1` , tested on Aβ42 fibrils (Homo sapiens, UniProt P05067)?
shortest fibrils

* * *

- testedOn: equine butyrylcholinesterase (eqBChE) (Equus caballus, UniProt P81908)
- Sequence (P81908 whole entry): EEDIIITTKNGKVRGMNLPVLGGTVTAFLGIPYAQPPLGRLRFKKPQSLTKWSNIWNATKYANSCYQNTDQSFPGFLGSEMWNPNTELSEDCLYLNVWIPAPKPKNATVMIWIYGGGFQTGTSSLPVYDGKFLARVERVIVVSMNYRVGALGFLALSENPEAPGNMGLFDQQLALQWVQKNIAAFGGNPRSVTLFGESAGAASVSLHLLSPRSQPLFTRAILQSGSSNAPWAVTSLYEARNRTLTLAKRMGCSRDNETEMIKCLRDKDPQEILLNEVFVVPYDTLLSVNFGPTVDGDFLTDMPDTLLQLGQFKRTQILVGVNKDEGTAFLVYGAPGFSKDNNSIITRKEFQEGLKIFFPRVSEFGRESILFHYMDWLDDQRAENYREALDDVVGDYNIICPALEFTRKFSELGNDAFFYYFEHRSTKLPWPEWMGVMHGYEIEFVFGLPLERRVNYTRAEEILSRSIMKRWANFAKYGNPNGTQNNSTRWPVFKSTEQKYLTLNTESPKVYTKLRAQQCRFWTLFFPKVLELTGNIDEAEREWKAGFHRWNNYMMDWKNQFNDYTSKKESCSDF
- experimentDescription: biochemical
- measurementConditions: IC50 (AChE)/IC50 (BChE); eeAChE and eqBChE
Kindly supply the reported SI (selectivity index) values for the records listed here.

GET /values?readout=SI (selectivity index)&system=equine butyrylcholinesterase (eqBChE) (Equus caballus, UniProt P81908)&item= `CCN(C)C(=O)Oc1cccc(NC(=O)c2ccc3nc(-c4ccccc4O)[nH]c3c2)c1`
3.03

Entry `CCN(C)C(=O)Oc1ccc(CCCNC(=O)c2ccc3nc(-c4ccccc4O)[nH]c3c2)cc1` , system equine butyrylcholinesterase (eqBChE) (Equus caballus, UniProt P81908): what SI (selectivity index) was measured?
1.25

Hi! What's the reported SI (selectivity index) for `CCN(C)C(=O)Oc1cccc(CNC(=O)c2cccc3[nH]c(-c4ccccc4O)nc23)c1` on equine butyrylcholinesterase (eqBChE) (Equus caballus, UniProt P81908)?
105.7

Missing value: SI (selectivity index), equine butyrylcholinesterase (eqBChE) (Equus caballus, UniProt P81908), entry `CCN(C)C(=O)Oc1ccc(CCCNC(=O)c2cccc3[nH]c(-c4ccccc4O)nc23)cc1` . Fill in?
12.6

Tell me reported SI (selectivity index) for `CCN(C)C(=O)Oc1cccc(NC(=O)c2cccc3[nH]c(-c4ccccc4O)nc23)c1` , tested with equine butyrylcholinesterase (eqBChE) (Equus caballus, UniProt P81908).
19.6

Value wanted: SI (selectivity index) (equine butyrylcholinesterase (eqBChE) (Equus caballus, UniProt P81908)) of entry `CCN(C)C(=O)Oc1cccc(CNC(=O)c2ccc3nc(-c4ccccc4O)[nH]c3c2)c1`
2.17

// map `CCN(C)C(=O)Oc1cccc(CCNC(=O)c2ccc3nc(-c4ccccc4O)[nH]c3c2)c1` to recorded SI (selectivity index) (system: equine butyrylcholinesterase (eqBChE) (Equus caballus, UniProt P81908))
3.69

* * *

Answer each item with its documented pIC50.
Field pIC50 (float): negative decimal logarithm of the concentration in molar.

Reported pIC50 for electric eel acetylcholinesterase (eeAChE) (Electrophorus electricus, UniProt O42275), given `CCN(C)C(=O)Oc1cccc(CNC(=O)c2ccc3nc(-c4ccccc4O)[nH]c3c2)c1` ?
4.85

Reported pIC50 for electric eel acetylcholinesterase (eeAChE) (Electrophorus electricus, UniProt O42275), given `CCN(C)C(=O)Oc1cccc(NC(=O)c2ccc3nc(-c4ccccc4O)[nH]c3c2)c1` ?
4.75

For electric eel acetylcholinesterase (eeAChE) (Electrophorus electricus, UniProt O42275), provide pIC50 of `CCN(C)C(=O)Oc1cccc(NC(=O)c2cccc3[nH]c(-c4ccccc4O)nc23)c1` please.
4.75

Record `CCN(C)C(=O)Oc1ccc(CCCNC(=O)c2cccc3[nH]c(-c4ccccc4O)nc23)cc1` : what is its pIC50 with electric eel acetylcholinesterase (eeAChE) (Electrophorus electricus, UniProt O42275)?
4.67

Notebook entry, electric eel acetylcholinesterase (eeAChE) (Electrophorus electricus, UniProt O42275) assay: pIC50 of `CCN(C)C(=O)Oc1ccc(CCCNC(=O)c2ccc3nc(-c4ccccc4O)[nH]c3c2)cc1` = ?
4.62

// lookup pIC50 | system=electric eel acetylcholinesterase (eeAChE) (Electrophorus electricus, UniProt O42275) | key= `CCN(C)C(=O)Oc1cccc(CNC(=O)c2cccc3[nH]c(-c4ccccc4O)nc23)c1`
4.50

Form field - read-out: pIC50; system: electric eel acetylcholinesterase (eeAChE) (Electrophorus electricus, UniProt O42275); submitted item: `CCN(C)C(=O)Oc1cccc(CCNC(=O)c2ccc3nc(-c4ccccc4O)[nH]c3c2)c1`
Sequence (O42275 24-633): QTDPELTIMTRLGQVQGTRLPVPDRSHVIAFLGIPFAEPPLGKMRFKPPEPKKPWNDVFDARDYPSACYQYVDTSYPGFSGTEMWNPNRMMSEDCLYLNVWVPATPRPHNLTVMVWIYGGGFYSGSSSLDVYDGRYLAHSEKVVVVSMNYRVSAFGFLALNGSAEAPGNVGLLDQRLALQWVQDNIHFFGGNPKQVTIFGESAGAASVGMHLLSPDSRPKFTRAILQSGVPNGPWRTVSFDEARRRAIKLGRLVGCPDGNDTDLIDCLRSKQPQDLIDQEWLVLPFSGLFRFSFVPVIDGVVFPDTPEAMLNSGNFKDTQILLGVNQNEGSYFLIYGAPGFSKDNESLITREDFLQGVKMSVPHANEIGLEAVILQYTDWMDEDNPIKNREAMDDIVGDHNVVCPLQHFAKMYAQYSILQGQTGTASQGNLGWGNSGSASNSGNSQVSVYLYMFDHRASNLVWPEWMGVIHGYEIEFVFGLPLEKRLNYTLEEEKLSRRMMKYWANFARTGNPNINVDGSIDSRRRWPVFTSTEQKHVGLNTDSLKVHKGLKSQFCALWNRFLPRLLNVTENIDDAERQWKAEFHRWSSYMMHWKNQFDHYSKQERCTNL
4.75

* * *

Please provide measured inhibition at 20 µM for the entries that follow.
- testedOn: Aβ42 self-aggregation (Homo sapiens, UniProt P05067)
- Construct: Beta-amyloid protein, fragment 1-42; purchased GeneCust
- Sequence (P05067 672-713 limits assumed): as the sequence (P05067 672-713 limits assumed) above
- experimentDescription: biochemical
- Format: biochemical
- measurementConditions: read-out: Aβ42 Self-Aggreg. Inhib
Hi! Could you send only the number? It should be in %, unit omitted.

Quick check: inhibition at 20 µM of CCN(C)C(=O)Oc1ccc(CCCNC(=O)c2cccc3[nH]c(-c4ccccc4O)nc23)cc1 [Compound 5d] ?
42.1

Quick one: inhibition at 20 µM of CCN(C)C(=O)Oc1cccc(CCNC(=O)c2ccc3nc(-c4ccccc4O)[nH]c3c2)c1 [Compound 4c] ?
21.2

What value of inhibition at 20 µM has been recorded for this entry: Nc1c2c(nc3ccccc13)CCCC2 [Tacrine, reference compound]
28.1

# query: inhibition at 20 µM of entry CCN(C)C(=O)Oc1cccc(CNC(=O)c2cccc3[nH]c(-c4ccccc4O)nc23)c1 [Compound 5b]
58.7

May I ask what inhibition at 20 µM has been recorded for COc1cc(/C=C/C(=O)CC(=O)/C=C/c2ccc(O)c(OC)c2)ccc1O [Curcumin, reference compound] ?
65.7

Using the record for CCN(C)C(=O)Oc1cccc(NC(=O)c2cccc3[nH]c(-c4ccccc4O)nc23)c1 [Compound 5a] , report its inhibition at 20 µM.
44.5

I have this compound here, CCN(C)C(=O)Oc1ccc(CCCNC(=O)c2ccc3nc(-c4ccccc4O)[nH]c3c2)cc1 [Compound 4d] , and I need its recorded inhibition at 20 µM.
20.1

# get_value(readout='inhibition at 20 µM', item= CCN(C)C(=O)Oc1cccc(NC(=O)c2ccc3nc(-c4ccccc4O)[nH]c3c2)c1 [Compound 4a] )
39

Look up inhibition at 20 µM: CCN(C)C(=O)Oc1cccc(CNC(=O)c2ccc3nc(-c4ccccc4O)[nH]c3c2)c1 [Compound 4b]
39.6

* * *

- testedOn: Cu(II)-induced Aβ42 aggregation (Homo sapiens)
- Construct: Beta-amyloid protein, fragment 1-42; purchased GeneCust
- Sequence (P05067 672-713 limits assumed): as the sequence (P05067 672-713 limits assumed) above
- experimentDescription: Inhibition of Cu(II)-induced Aβ42 aggregation (thioflavin T fluorescence)
- Assay type: biochemical
- measurementConditions: read-out: Aβ42 Cu-Ind. Aggreg. Inhib, copper (40 μM), 20 μM inhibitor, thioflavin-T fluorescence, 37 °C 24 h
- Description: The inhibition of Aβ42 aggregation and Cu(II)-induced Aβ42 aggregation, carried out by the RIV–BIM hybrids, was studied using a reported method based on the fluorescence emission of thioflavin T [52, 53]. […] The anti-amyloidogenic capacity of the compounds was assessed in vitro using the thioflavin T (ThT) method. To record fluorescence emission, excitation (446 nm) and emission (485 nm) wavelengths were used. […]
measurementLabel: inhibition at 20 µM (%)
Answer format: numeric, % implied, no suffix.

Would you mind telling me what inhibition at 20 µM value was observed for CCN(C)C(=O)Oc1cccc(NC(=O)c2ccc3nc(-c4ccccc4O)[nH]c3c2)c1 [Compound 4a] ?
41.2

Item CCN(C)C(=O)Oc1cccc(CCNC(=O)c2ccc3nc(-c4ccccc4O)[nH]c3c2)c1 [Compound 4c] has what recorded inhibition at 20 µM?
22

Which measured inhibition at 20 µM value corresponds to CCN(C)C(=O)Oc1cccc(NC(=O)c2cccc3[nH]c(-c4ccccc4O)nc23)c1 [Compound 5a] ?
45.4

Name the recorded inhibition at 20 µM for CCN(C)C(=O)Oc1cccc(CNC(=O)c2cccc3[nH]c(-c4ccccc4O)nc23)c1 [Compound 5b] .
60.8

Which inhibition at 20 µM value is on record for CCN(C)C(=O)Oc1ccc(CCCNC(=O)c2ccc3nc(-c4ccccc4O)[nH]c3c2)cc1 [Compound 4d] ?
21.3

Query (molecule): CCN(C)C(=O)Oc1cccc(CNC(=O)c2ccc3nc(-c4ccccc4O)[nH]c3c2)c1 [Compound 4b] ; field requested: inhibition at 20 µM
48.8

* * *

- testedOn: Aβ42 fibrils (Homo sapiens)
- Construct: Beta-amyloid protein, fragment 1-42; purchased Sigma-Aldrich
- experimentDescription: TEM assay of Aβ42 fibrils in the absence of Cu(II)
- Type: biochemical
- measurementConditions: TEM, CAβ42 = CL = 50 µM, 48 h 37 °C, Aβ42 alone 4.9 ± 0.2 nm
- Protocol: To perform the TEM assays, commercial Aβ42 purchased from Sigma-Aldrich was pre-treated with pure HFIP, a beta-sheet disruptor, to obtain homogeneous and monomeric Aβ42 [54]. […] Working solutions were incubated for 48 h at 37 °C before being analyzed by TEM. Samples were negatively stained with uranyl acetate 2% (w/v) and analyzed at 100 kv with a JEOL JEM 1400 Plus transmission electron microscope. […]
measurementLabel: Aβ42 fibril width (nm)
Hi! Could you send only the number? It should be in nm, unit omitted.

Give its Aβ42 fibril width value. Item: `CCN(C)C(=O)Oc1cccc(CNC(=O)c2ccc3nc(-c4ccccc4O)[nH]c3c2)c1`
4.1

Find the recorded Aβ42 fibril width belonging to `CCN(C)C(=O)Oc1cccc(NC(=O)c2ccc3nc(-c4ccccc4O)[nH]c3c2)c1` and report it.
4.1

Which Aβ42 fibril width reading was recorded for the molecule `CCN(C)C(=O)Oc1cccc(NC(=O)c2cccc3[nH]c(-c4ccccc4O)nc23)c1` ?
4.5

Return reported Aβ42 fibril width; argument: `CCN(C)C(=O)Oc1cccc(CCNC(=O)c2ccc3nc(-c4ccccc4O)[nH]c3c2)c1`
4.1
